The origin of these recorded values is patent US20220235065A1.

- System tested: recombinant purified human EHMT2 913-1193 (Homo sapiens, UniProt Q96KQ7)
- Construct: Recombinant purified human EHMT2 913-1193 (55 μM) synthesized by Viva was used for all experiments; purchased Viva
- Protocol text: EHMT2 enzyme assay on histone peptide substrate (3H-SAM Flashplate)
- Format: biochemical
- Protocol conditions: read-out: EHMT2 PEP (IC50 μM)
Endpoint label: IC50

CNCc1cnn(-c2cc3c(cc2OC)C2(CCC2)C(NC)=N3)c1 < 0.1 µM
CNc1cc(C)nc(Nc2ccc(OC)c(-n3cc(C)c(CNC(C)=O)n3)c2)n1 > 10 µM
CNc1cc(C)nc(Nc2ccc(OC)c(-n3ccc(CNC(C)=O)n3)c2)n1 > 10 µM
CNc1cc(C)nc(Nc2ccc(C)c(C(=O)Nc3cnccn3)c2)n1 1 to 10 µM

Query compound follows.
The reported value for CNc1nc2cc(-c3cc4[nH]ccc4cn3)c(C)cc2n1C in terms of IC50 is 1 to 10 µM

###

- System tested: recombinant purified human EHMT2 913-1193 (Homo sapiens)
- Construct: Recombinant purified human EHMT2 913-1193 (55 μM) synthesized by Viva was used for all experiments; purchased Viva
- Sequence (Q96KQ7 913-1193): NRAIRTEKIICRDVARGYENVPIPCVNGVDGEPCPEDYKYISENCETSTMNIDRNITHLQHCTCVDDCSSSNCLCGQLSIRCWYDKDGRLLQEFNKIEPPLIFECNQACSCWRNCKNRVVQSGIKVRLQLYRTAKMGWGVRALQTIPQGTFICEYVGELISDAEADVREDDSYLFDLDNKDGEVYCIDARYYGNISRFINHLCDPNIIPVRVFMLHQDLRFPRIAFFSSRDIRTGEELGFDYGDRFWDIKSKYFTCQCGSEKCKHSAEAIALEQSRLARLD
- Protocol text: EHMT2 enzyme assay on histone peptide substrate (3H-SAM Flashplate)
- Assay type: biochemical
- Protocol conditions: read-out: EHMT2 PEP (IC50 μM)
Endpoint label: IC50

CNc1cc(C)c2cc(OC)c(-n3cc(C4CCCN4)nn3)cc2n1 (centres unmarked) yielded IC50 of 0.1 to 1 µM

###

Consider the following compounds and their measured IC50 readings.
- System tested: EHMT1 (Homo sapiens, UniProt Q9H9B1)
- Sequence (Q9H9B1 1-1298): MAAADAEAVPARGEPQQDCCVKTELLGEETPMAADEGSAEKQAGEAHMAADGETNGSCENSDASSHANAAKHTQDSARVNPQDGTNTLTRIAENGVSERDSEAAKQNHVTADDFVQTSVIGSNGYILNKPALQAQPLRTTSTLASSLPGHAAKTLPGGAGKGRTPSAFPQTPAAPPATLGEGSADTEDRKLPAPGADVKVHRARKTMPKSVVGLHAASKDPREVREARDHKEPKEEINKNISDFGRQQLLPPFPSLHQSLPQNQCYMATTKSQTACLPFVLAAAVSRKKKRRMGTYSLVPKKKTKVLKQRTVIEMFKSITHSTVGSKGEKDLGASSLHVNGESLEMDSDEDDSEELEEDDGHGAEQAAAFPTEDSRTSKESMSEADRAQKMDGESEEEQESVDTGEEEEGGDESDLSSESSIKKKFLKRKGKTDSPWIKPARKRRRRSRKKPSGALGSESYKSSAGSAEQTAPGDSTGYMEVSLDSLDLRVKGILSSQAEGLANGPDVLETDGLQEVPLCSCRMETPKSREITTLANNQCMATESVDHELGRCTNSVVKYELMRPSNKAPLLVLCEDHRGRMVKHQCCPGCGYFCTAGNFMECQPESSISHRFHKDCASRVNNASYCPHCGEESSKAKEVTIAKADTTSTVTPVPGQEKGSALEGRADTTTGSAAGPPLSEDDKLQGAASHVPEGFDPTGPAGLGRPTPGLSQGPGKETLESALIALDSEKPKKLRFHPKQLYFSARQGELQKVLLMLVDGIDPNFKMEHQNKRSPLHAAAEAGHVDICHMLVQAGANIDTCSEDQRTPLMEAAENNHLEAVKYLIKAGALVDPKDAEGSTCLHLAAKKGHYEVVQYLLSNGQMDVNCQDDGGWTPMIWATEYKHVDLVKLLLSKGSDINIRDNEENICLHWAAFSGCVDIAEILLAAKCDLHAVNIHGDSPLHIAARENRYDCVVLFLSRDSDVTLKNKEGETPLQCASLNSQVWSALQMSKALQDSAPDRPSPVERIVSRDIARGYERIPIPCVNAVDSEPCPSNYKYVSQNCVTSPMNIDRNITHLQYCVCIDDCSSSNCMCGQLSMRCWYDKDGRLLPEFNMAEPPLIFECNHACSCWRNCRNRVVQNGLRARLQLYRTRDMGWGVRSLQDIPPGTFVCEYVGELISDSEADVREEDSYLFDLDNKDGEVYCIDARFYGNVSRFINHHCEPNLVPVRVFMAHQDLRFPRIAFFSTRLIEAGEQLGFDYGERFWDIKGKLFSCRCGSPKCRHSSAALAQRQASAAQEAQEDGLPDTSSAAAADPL
- Protocol text: EHMT1 PEP (EHMT1 peptide enzyme assay)
- Assay type: biochemical
- Protocol conditions: peptide substrate enzyme assay

Field: example entries. Status: answers known.
Compound	System tested	IC50
CNc1cc(C)nc(Nc2ccc(OC)c(-n3cc([C@H]4CCCN4)cn3)c2)n1 [Compound 334]	EHMT1 (Homo sapiens, UniProt Q9H9B1)	< 0.1 µM
CNc1cc(C)nc(Nc2ccc(OC)c(-c3cc4cnoc4cn3)c2)n1 [Compound 235]	EHMT1 (Homo sapiens, UniProt Q9H9B1)	> 10 µM
CNc1cc(C)nc(Nc2ccc(OC)c(-c3nnc(C)[nH]3)c2)n1 [Compound 11]	EHMT1 (Homo sapiens, UniProt Q9H9B1)	> 10 µM
CNc1ccnc(Nc2ccc(OC)c(-c3cc4[nH]ncc4cn3)c2)n1 [Compound 174]	EHMT1 (Homo sapiens, UniProt Q9H9B1)	> 10 µM
CNc1cc(C)nc(Nc2ccc(OC)c(-n3cc(C4CCCN4)cn3)c2)n1 (centres unmarked) [Compound 321]	EHMT1 (Homo sapiens, UniProt Q9H9B1)	< 0.1 µM
COc1cc2c(cc1-n1cc([C@@H]3CCCN3)nn1)N=C(N)C21CCC1 [Compound 195]	EHMT1 (Homo sapiens, UniProt Q9H9B1)	0.1 to 1 µM
CNc1cc(C)nc(Nc2ccc(OC)c(-n3cc(CN(C)C)c(C)n3)c2)n1 [Compound 160]	EHMT1 (Homo sapiens, UniProt Q9H9B1)	< 0.1 µM

Summary for this compound, CNc1cc(C)nc(Nc2ccc(OC)c(-c3cccc4[nH]ncc34)c2)n1 [Compound 37, trifluoroacetic acid] : IC50 is > 10 µM
